# Tested on: PC-3 prostate
# PROTOCOL: NCI tumour cell line growth inhibition, 48 h

MOLECULE: CC(=O)CC1(OC(=O)C2C(C=C(C)C)C2(C)C)C(=O)Nc2ccccc21 (centres undefined)
TGI: > 100 µM
//
MOLECULE: C=CCNC(=O)N1CC(C)C(=O)Nc2ccccc21 (centres undefined)
TGI: > 100 µM
//
MOLECULE: Clc1ccc(CCC(Cn2ccnc2)Sc2c(Cl)cccc2Cl)cc1 (centres undefined)
TGI: 12.6 µM
//
MOLECULE: Cc1cc2c([nH]1)CSc1cc(S(=O)(=O)c3ccccc3)c(=O)[nH]c1-2
TGI: > 100 µM
//
MOLECULE: CC1(C)SC2C(NC(=O)C(C(=O)O)c3ccccc3)C(=O)N2C1C(=O)O (centres undefined)
TGI: > 100 µM
//
MOLECULE: O=C1NC(N/N=C/c2c[nH]c3ccccc23)=N/C1=C\c1cccs1
TGI: > 100 µM
//
MOLECULE: Cc1cc(NN)nc2n[nH]c(N)c12
TGI: > 100 µM
//
MOLECULE: COc1cc2c(c(OC)c1OC)-c1cccc(=O)cc1C(NC(C)=O)CC2 (centres undefined)
TGI: > 100 µM
//
MOLECULE: O=C(O)CNC(=O)C(CSC(=O)OCC1c2ccccc2-c2ccccc21)NC(=O)CCC(NC(=O)OCC1c2ccccc2-c2ccccc21)C(=O)O (centres undefined)
TGI: 28.9 µM
//
MOLECULE: Oc1ccc(-c2nn3c(CCCCCCCCc4nnc5sc(-c6ccc(O)cc6)nn45)nnc3s2)cc1
TGI: > 100 µM
//
MOLECULE: O=P(O)(O)C(NCC(O)CN1CCOCC1)P(=O)(O)O (centres undefined)
TGI: > 100 µM
//
MOLECULE: C=CCCC1CCCNC1=S (centres undefined)
TGI: > 100 µM
//
MOLECULE: CS(=O)(=O)Nc1cc(-c2ccc3ncnc(Nc4ccc5c(cnn5Cc5cccc(F)c5)c4)c3c2)cnc1Cl
TGI: 2.6 µM
//
MOLECULE: S=C(/C=C1\SC(=Nc2ccccc2)C(=Nc2ccccc2)N1c1ccccc1)Nc1ccccc1
TGI: > 100 µM
